// reported IC50 for each item listed
Molecular target: Recombinant Human (rh) DPP1 (Homo sapiens)
Sequence (P53634 25-463): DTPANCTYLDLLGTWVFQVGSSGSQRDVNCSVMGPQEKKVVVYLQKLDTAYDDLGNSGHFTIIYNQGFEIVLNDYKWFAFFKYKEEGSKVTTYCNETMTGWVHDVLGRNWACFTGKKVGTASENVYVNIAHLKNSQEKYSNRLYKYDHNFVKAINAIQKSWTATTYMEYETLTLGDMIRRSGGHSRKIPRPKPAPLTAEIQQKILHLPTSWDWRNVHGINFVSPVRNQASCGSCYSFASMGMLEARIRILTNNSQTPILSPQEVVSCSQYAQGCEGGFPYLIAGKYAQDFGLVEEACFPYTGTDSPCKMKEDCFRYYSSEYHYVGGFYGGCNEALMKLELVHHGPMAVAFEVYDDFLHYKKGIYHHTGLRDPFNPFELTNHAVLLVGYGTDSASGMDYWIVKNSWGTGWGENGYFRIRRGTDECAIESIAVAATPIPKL
Assay: Fluorescence Assay for Recombinant Human (rh) DPP1
Assay type: biochemical
Settings: rhDPP1; substrate H-Gly-Arg-AMC; pH5.0; 30 min pre-incubation, 60 min reaction at 22° C.; highest concentration 10 μM; read-out: DPP1 activity, pIC50 (converted)
Counter-ions that a name gives are not always drawn.
Please state the figure in nM; there is no need to write the unit.

Reference set (4 entries):
1) Cn1c(=O)sc2cc(-c3ccc(C[C@@H](C#N)NC(=O)[C@@H]4CCCCN4)cc3)ccc21 | 50.1
2) N#Cc1ccc(-c2ccc(C[C@@H](C#N)NC(=O)[C@@H]3CCCCN3)cc2)cc1 [Example 24, trifluoroacetate] | 15.8
3) CSc1cccc(-c2ccc(C[C@@H](C#N)NC(=O)[C@@H]3CCCCN3)cc2)c1 | 63.1
4) Cn1c(=O)sc2ccc(-c3ccc(C[C@@H](C#N)NC(=O)[C@@H]4CCCCN4)cc3)cc21 | 2

Fill in the blank: the reported IC50 of N#CC(Cc1ccc(-c2ccc(S(=O)(=O)N3CCOCC3)cc2)cc1)NC(=O)[C@@H]1CCCCN1 (mixture of isomers) [Example 94, Trifluoroacetate] is ____.
15.8

Lookup CNC(=O)c1ccc(-c2ccc(C[C@@H](C#N)NC(=O)[C@@H]3CCCCN3)cc2)cc1 [Example 74, Trifluoroacetate]
100

Also, N#C[C@H](Cc1ccc(-c2ccc(O)cc2)cc1)NC(=O)[C@@H]1CCCCN1 [Example 23, trifluoroacetate] please.
63.1

Likewise for CS(=O)(=O)c1cc(-c2ccc(C[C@@H](C#N)NC(=O)[C@@H]3CCCCN3)cc2)ccc1C#N ?
15.8

Okay, and N#C[C@H](Cc1ccc(-c2cccc(CN)c2)cc1)NC(=O)[C@@H]1CCCCN1 [Example 7, Ditrifluoroacetate] ?
100

Follow-up item: N#C[C@H](Cc1ccc(-c2ccc(S(=O)(=O)N3CCC3)cc2)cc1)NC(=O)[C@@H]1CCCCN1 [Example 72, Trifluoroacetate]
3.98

Consider next the compound COc1ncc(-c2ccc(C[C@@H](C#N)NC(=O)[C@@H]3CCCCN3)cc2)cn1 [Example 46, trifluoroacetate] in the same way.
1260

Input N#C[C@H](Cc1ccc(-c2ccc3c(c2)OCCO3)cc1)NC(=O)[C@@H]1CCCCN1
251

Values were extracted from patent US7902181B2.
